B1: scFv; the commonest letter at each place (parent)
chain 1: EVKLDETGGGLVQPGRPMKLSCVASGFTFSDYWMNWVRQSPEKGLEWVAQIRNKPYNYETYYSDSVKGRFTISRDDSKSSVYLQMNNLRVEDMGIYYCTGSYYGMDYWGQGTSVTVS
chain 2: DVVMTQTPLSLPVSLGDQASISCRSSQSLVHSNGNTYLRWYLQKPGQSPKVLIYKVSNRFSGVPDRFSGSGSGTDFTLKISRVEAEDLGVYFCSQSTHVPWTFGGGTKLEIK

- Variants of: B1
- METHOD NOTES: Kd (Tite-Seq)
- RUN CONDITIONS: with fluorescein; format: scFv 4-4-20, heavy + light
Overview of recorded Kd for various variants

Would you please look over these solved cases?
chain 1 M105V W108D : ≥ 10 µM
chain 1 Y103V Y107M : ≥ 10 µM
chain 1 Y102F : 0.00309 µM
chain 1 Y103W M105L G109W : ≥ 10 µM
chain 1 W33M : ≥ 10 µM

Input chain 1 S101F M105L . Output Kd: ≥ 10 µM

Kd in this record for chain 1 T28I D31H : 0.00128 µM

chain 1 Y102C G104D has a reported Kd of ≥ 10 µM

Kd in this record for chain 1 M105A D106V : ≥ 10 µM

Note to self: Kd recorded for chain 1 G104R G109C was ≥ 10 µM

Looking up chain 1 G100W Y102N D106L , I found its Kd recorded as ≥ 10 µM

Just so you know, measured Kd for chain 1 D106L G109S came out at ≥ 10 µM

The variant listed as chain 1 W36T has a reported Kd of ≥ 10 µM

Record chain 1 Y107W W108T , field Kd: ≤ 0.000316 µM

Lab book: Kd of chain 1 F29K Y32G noted as ≥ 10 µM
